This listing pairs sequences with measured apparent KD of K4 kissing-loop reporter.
- Test system: K4 kissing-loop RNA reporter
- protocolDetails: apparent KD of K4 kissing-loop reporter; higher = weaker reporter binding
- testContext: Eterna round: R107; input ligand: none
Value expressed in nM; do not type the unit.

// solved cases for apparent KD of K4 kissing-loop reporter follow
UCUAAGGUCGAACCGGUAUGAUCACCGGAUACCAGAGGCGAAAGCCUCCCUUGGCAGCCGAGUGUAGUGAUGUUACACGGGUUCU : 175
GCGAUUCAGUGAUGUUGGAAAUACAGGGAUACCAGCCGAGAAUAAGGCCCUUGGCAGCUUAAUAGGAAAGAACUAAGUAAGACGC [Theophylline A Same State; Euphoria Solution 2] : 877
CCAUCGCUAUUCGAUACCAGUCAGGAGGUCUUUGGCCUCCUAUUGGAGUGAUGUUCCAUAGACCCUUGGCAGCGAAUAGUGAUGG [Theophylline B K4 15] : 834

Query: Param request: apparent KD of K4 kissing-loop reporter | system K4 kissing-loop RNA reporter | item AGUACGGACGCGGCCGCCACUCAGAAGAAGACGGUAGUGAUGUUACUGAUGGUGAGAACAAUAAAGAGGACCGGGUGUCGUGCAA [#06 K4 Tryptophan B Same State]
Result: 523

Query: Param request: apparent KD of K4 kissing-loop reporter | system K4 kissing-loop RNA reporter | item AAGCAGUCACUCGACGCCAUCGAAGAUGGGCGAGGACCGGUACGGCCGCCACUCGGAGUGAUGUUCUGAAGACUGCAAAAUAAAA [MatMod 7 - Jieux - Exclusion - Tryptophan A];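 further: bound reporter read as fluorescence of individual clusters on recovered sequencing chips by microscopy, with normalized cluster intensities fitted with a binding model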
Result: 153

====

- Tested on: MS2 coat protein
- protocolDetails: apparent KD of MS2 coat protein; designed switch direction (-1 OFF switch, 1 ON switch): 1; higher = weaker reporter binding
- testContext: input ligand: FMN 200 uM
reportedMetric: apparent KD of MS2 coat protein (nM)
Value expressed in nM; do not type the unit.

// solved cases for apparent KD of MS2 coat protein follow
GGAAACAAGAGAGGAUAUGCAGAGGAUCACCCUGUAGAAGGCUCCCUAGAGAGGAUAUGCAGAGGAUCACCCUGCAGAAGGCUC [pwkr ssNG DX.18] (Eterna round: R96, puzzle: Same State NG 1) : 227
UUCUCAUUUACAUGAGGAUCACCCAUGUUUUUUUGUCGGAAAUAGGAUAUAGGUCUCUCGUUUUACUAGAAGGAUUUCCUUAUU [JR_SSNG3_Sub089] (Eterna round: R96, puzzle: Same State NG 3) : 70.4
GUGUGUUGCGGGCAGGAUAUGUACUUGAGUACAUGAGGAUCACCCAUGUGCGGGUGUUUCACCCGACAGAAGGGCCUAUCGCGAC [JL-ss2-3.25 ViennaUCT mod] (Eterna round: R96, puzzle: Same State 2) : 252
GCGAAAGCCGUAGGAUAUGUAGGAUAUGGCGAGAGCUAAGCUUGGAAGUCACUUCAGCCAGAAGGACAGAAGGACGCCGAAAGG [pwkr ssNG2 2FMN + F9.15] (Eterna round: R96, puzzle: Same State NG 2) : 1410
AUCCCAUCGGGAGGAUAUGGAACCUUAUUGGUUCUAGAAGGUCCAACAUGAGGAUCACCCAUGUGGGAGUGGUCUAAUGACCAC [SS NG10LRO01] (Eterna round: R96, puzzle: Same State NG 1) : 190

Query: Param request: apparent KD of MS2 coat protein | system MS2 coat protein | item GCGAGCGUACUUGCAGACAUGAGGAUCACCCAUGUAAAUGGGAAGGAUAUGGUACCGUUUCGGUACCAGAAGGUCCUAAGUGAU [salish99_SSNG3_r04_301] (Eterna round: R96, puzzle: Same State NG 3)
Result: 665

Query: Param request: apparent KD of MS2 coat protein | system MS2 coat protein | item GGAGCCGGCCUAGGAUAUUUCAUAAUUUAACAUGAGGAUCACCCAUGUAGGCCAGAAGGCCUUGGGAAGAAGGAGGUCGGCUCC [Loop Effect - U26,U27,U28] (Eterna round: R96, puzzle: Same State NG 2)
Result: 17.4

Query: Param request: apparent KD of MS2 coat protein | system MS2 coat protein | item UUGAAUAAUUAAGGAUAUCGAGUCAAGAUGUUAAACAUGAGGAUCACCCAUGUGGGUUGCGGUAUCGAGAAGGUAAAUAAGAAG [Mat - Same State NG 2 - JL mod - D55] (Eterna round: R96, puzzle: Same State NG 2)
Result: 26.6

Query: Param request: apparent KD of MS2 coat protein | system MS2 coat protein | item AAUCGUUUGAUAGGAUAUCGCUAUACAUGAGGAUCACCCAUGUUUACCACGCUGGUUUUUCGUACCGAGAAGGAUUCUGAUGAU [JL JR sub007 mod 4] (Eterna round: R96, puzzle: Same State NG 2)
Result: 36

Query: Param request: apparent KD of MS2 coat protein | system MS2 coat protein | item GCUAGGAAUAAAGCCAACAUGAGGAUCACCCAUGUAUGUUGGUAGGAUAUCGUUUGCUUUGCAAACGAGAAGGGCUAACCUAGC [JL SSNG3 1.24] (Eterna round: R96, puzzle: Same State NG 3)
Result: 74.6

Query: Param request: apparent KD of MS2 coat protein | system MS2 coat protein | item UUCUGAUAGCGAGGAUAUCGCGAGGAUCACCCGUGAGAAGGCGCAGAGCCGAGGAUCACCCGGCUGAUCCUGAGAAGGAGGUCA (Eterna round: R96, puzzle: Same State NG 1)
Result: 136

Query: Param request: apparent KD of MS2 coat protein | system MS2 coat protein | item AUUAAUAAUCUAGGAUAUCACGUCGAAUAGACGUGAGAAGGAGAUCAUAACAUGAGGAUCACCCAUGUAUUACAUGAAGUUAAU [SSNG1/7-B1] (Eterna round: R96, puzzle: Same State NG 1)
Result: 27.5

Query: Param request: apparent KD of MS2 coat protein | system MS2 coat protein | item UGGUACAUGGGAGGAUAUCUCAUGGAGACAUGAGGAUCACCCAUGUAGUUGGACCGGAAACGGUGAGAGAAGGCCCAUGUACCU [JL SSNG1 3.72] (Eterna round: R96, puzzle: Same State NG 2)
Result: 30.2

Query: Param request: apparent KD of MS2 coat protein | system MS2 coat protein | item UGGUACAUGGGAGGAUAUCCUCAGGAGACAUGAGGAUCACCCAUGUAAUAUAAGCCGAAAGGCAUGGAGAAGGCCCAUGUACCU [JL SSNG1 3.81] (Eterna round: R96, puzzle: Same State NG 2)
Result: 27.6

Query: Param request: apparent KD of MS2 coat protein | system MS2 coat protein | item UAUUUAAUCAUAGGAUAUAGUGUGAAAUUUGGACUAGAAGGAUGUAACAUGAGGAUCACCCAUGUGGUAAGUGGGAUACAUUCC [JR_SSNG1_Sub098] (Eterna round: R96, puzzle: Same State NG 1)
Result: 110

Query: Param request: apparent KD of MS2 coat protein | system MS2 coat protein | item GGCUAGGAUAUCUGCAGGAUCACCGCGGAGAAGGAGCUAAGCUAGGAUAUCCGCAGGAUCACCGCGGAGAAGGAGCAUAAUAUA [pwkr ssNG3 DX 2xF5 +2xFMN.15] (Eterna round: R96, puzzle: Same State NG 3)
Result: 81.5

Query: Param request: apparent KD of MS2 coat protein | system MS2 coat protein | item UGCCUGAGUCGAGGAUAUUAUGGAUCCUUUAAUACAUGAGGAUCACCCAUGUAAUUAAUUAUACAUGAGAAGGCGACUCAGGCA [SSNG2/11-A2] (Eterna round: R96, puzzle: Same State NG 2)
Result: 17.4

Query: Param request: apparent KD of MS2 coat protein | system MS2 coat protein | item GUGGUCAGACAUGAGGAUCACCCAUGUGGAAUAAAUAACAGACAGGAUAUUUAAUAUAGGAUAUAGAAGAAGGGUCGAUUGGUG (Eterna round: R96, puzzle: Same State NG 3)
Result: 117
